Experiment: Acumen qHTS Assay for Inhibitors of the mTORC1 Signaling Pathway in WT MEF Cells: Hit Validation; further: nearly all actives have a fitted effect of over 60% in size
Conditions: Acumen imaging; series mostly up to 37.3 µM
Excerpt: The mammalian target of rapamycin (mTOR) is an intracellular serine/threonine kinase Aberrant regulation of mTOR signaling plays a causative role in a number of human diseases, including cancer, benign tumors such as lymphangioleiomyomatosis (LAM) and Tuberous Sclerosis Complex (TSC), and metabolic diseases such as diabetes and obesity. This project aims to identify inhibitors of ribosomal protein S6 (rpS6) phosphorylation. The phosphorylation of rpS6 is a key event downstream of mTOR activation. […]
Results filed as inconclusive are left out. Calls of active or inactive are those of the source. The call rests on the fitted dose curve; in most records, active means well fitted inhibition curve with a large enough effect; inconclusive means small, poorly fitted or top-dose-only effect; inactive means no such curve, though single readings can be large or run the other way.
Labels: active, inactive

CCCCNC(=O)CSc1nc2nc(C)c(Cc3ccccc3C)c(C)n2n1
inactive
O=C(NCCSc1c(-c2ccc(F)cc2)[nH]c2ccccc12)c1ccc(S(=O)(=O)N2CCOCC2)cc1
inactive
CCCOCc1cc(CN2CCN(c3ccccc3OC)CC2)c(O)c2ncccc12
active
COc1ccc(-n2ncc3c(NCCCOC(C)C)ncnc32)cc1
inactive
CC(C)S(=O)(=O)c1oc(-c2ccc(F)cc2)nc1S(=O)(=O)c1ccc(F)cc1
active
O=C(COc1ccc(F)cc1)Nc1ccc(Cl)c(-c2nc3ccccc3[nH]2)c1
inactive
O=C(CCOc1ccccc1)N(Cc1cccnc1)c1nc2c(F)cccc2s1
active
CCCSc1oc(-c2ccco2)nc1S(=O)(=O)c1ccc(Br)cc1
inactive
CC(C)(C)c1ccc(C(=O)Nc2nnc3n2CCS3)cc1
active
Cc1nn(CC(=O)NCc2ccccc2Cl)c(=O)c2cccn12
inactive
Cc1ccc(-c2cc(C(=O)N3CCN(c4ccccc4)CC3)c3ccccc3n2)cc1C
inactive
Cc1nn(CCCC(=O)NCc2ccccc2)c(=O)c2c1sc1ccccc12
inactive
CCOc1ccc(-c2cnc(NCc3ccc(C(F)(F)F)cc3)n2C)cc1
inactive
O=C(Nc1ccc(-c2cc(C(F)(F)F)nn2-c2ccccc2)cc1)c1cccc(F)c1
inactive
O=S(=O)(NCc1nc2cccnc2n1Cc1ccccc1Cl)c1ccc(F)c(Cl)c1
inactive
CCOc1ccc(CCNC(=O)CCc2c(C)nc3cc(-c4ccccc4OC)nn3c2C)cc1
inactive
Cc1cccc(Nc2nnc(-c3ccc(C)c(S(=O)(=O)N4CCN(C)CC4)c3)c3ccccc23)c1
inactive
CN(C)c1ccc(Nc2nc3ccccc3n3nnnc23)cc1
inactive
NC(N)=NC(=O)c1nc(Cl)c(N)nc1N
inactive
CC(=O)Nc1cccc(NC(=O)C(=O)NCCc2sc(-c3ccccc3)nc2C)c1
active
Cc1c(C2=CCN(S(=O)(=O)c3ccc(Br)cc3)CC2)c2ccccc2n1CC(=O)N1CCCC1
inactive
COc1ccc(C(=O)N2CCN(C(=O)COc3ccc(Br)cc3)CC2)cc1OC
inactive
COC(=O)c1c(C)oc2ccc(N(C(=O)c3ccncc3)S(=O)(=O)c3ccc(OC)cc3)cc12
active

###

Assay: Acumen qHTS Assay for Inhibitors of the mTORC1 Signaling Pathway in WT MEF Cells: Hit Validation; further: nearly all actives have a fitted effect of over 60% in size
Details: Acumen imaging; series mostly up to 37.3 µM
Inconclusive results are not listed. Active and inactive are the calls of the source. Calls come from the whole dose curve; as a rule, active = well fitted inhibition curve with a large enough effect; inconclusive = small, poorly fitted or top-dose-only effect; inactive = no such curve, though single readings can be large or run the other way.
Labels: yes (active), no (inactive)

CN(C)CCN(Cc1ccco1)C(=O)c1cc2c(s1)-c1ccccc1OC2
no
COCc1oc2ccc(NS(=O)(=O)c3ccc(C)cc3)cc2c1C(=O)OC
yes
COc1cc(OC)c(NS(=O)(=O)c2ccc3c(c2)CCCN3C(C)=O)cc1Cl
no
Cc1c(C(=O)OC2CCC(C)CC2)[nH]c2c1C(=O)CC(c1ccc(F)cc1)C2 (stereo not given)
no
CCCSc1ncc(Cl)c(C(=O)Nc2ccc(S(=O)(=O)N3CCCCC3C)cc2)n1 (stereo not given)
no
COc1ccc(CCNC(=O)C(C)n2nc(C)c3sc4ccccc4c3c2=O)c(OC)c1 (stereo not given)
no
Cc1ccc(C(C)C)c(OCC(=O)Nc2cc(-c3nc4ccccc4[nH]3)ccc2C)c1
no
COc1ccc(CNC(=O)C2CCN(c3nc4ccc(C)cc4[nH]3)CC2)cc1
no
Cc1cc(C)c2oc(-c3cccc(NC(=O)COc4ccc([N+](=O)[O-])cc4)c3)nc2c1
no
COC(=O)c1cc2sc(C)cc2n1Cc1ccccc1
no

The values you see were collected from PubChem BioAssay AID651789.
